This collection of values is drawn from patent US9023847B2.

# system name: P70S6K (T412E mutant, Millipore) (Homo sapiens, UniProt P23443, T412E)
# Construct: purchased Millipore
# Sequence (P23443 whole entry T412E): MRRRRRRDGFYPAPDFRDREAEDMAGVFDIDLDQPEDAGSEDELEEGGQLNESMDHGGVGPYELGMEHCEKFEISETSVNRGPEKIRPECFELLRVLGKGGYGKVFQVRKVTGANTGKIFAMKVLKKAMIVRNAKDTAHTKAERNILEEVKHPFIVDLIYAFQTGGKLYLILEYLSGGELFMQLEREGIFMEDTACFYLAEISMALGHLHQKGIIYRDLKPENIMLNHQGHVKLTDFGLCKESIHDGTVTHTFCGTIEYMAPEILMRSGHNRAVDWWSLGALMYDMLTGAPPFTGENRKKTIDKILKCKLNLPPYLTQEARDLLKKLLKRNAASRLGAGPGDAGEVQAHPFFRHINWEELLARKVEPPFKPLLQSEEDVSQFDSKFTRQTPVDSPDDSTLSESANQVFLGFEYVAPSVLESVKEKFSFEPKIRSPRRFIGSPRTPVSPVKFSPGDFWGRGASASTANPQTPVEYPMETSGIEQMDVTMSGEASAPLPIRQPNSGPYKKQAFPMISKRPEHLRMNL
# run description: p70S6K enzyme assay
# Assay type: biochemical
# assay context: Table 1; 3 nM P70S6K, 24 μM ATP, 90 min at 25° C.; read-out: p70S6K inhibition (IC50)
pIC50: −log10 of the molar value.
Listed below: pIC50 values for each entry.
readout type: pIC50

compound | value measured
O=C(NCCc1ccc(F)cc1)c1sccc1Nc1ccnc2[nH]ccc12 | > 7.00
O=C(NCCc1ccc(Br)cc1)c1sccc1Nc1ncnc2[nH]ccc12 | > 7.00
Cc1ccccc1CCNC(=O)c1sccc1Nc1ncnc2[nH]ccc12 | > 7.00
O=C(NCCc1ccc(F)cc1)c1sccc1Nc1ncnc2[nH]ccc12 | > 7.00
CNCCNC(=O)c1sccc1Nc1ncnc2[nH]ccc12 | 6.00 to 7.00
CC(C)(C)OC(=O)N1CCCC(NC(=O)c2sccc2Nc2ncnc3[nH]ccc23)C1 (stereo not drawn) | 6.00 to 7.00
O=C(NC1CCCNC1)c1sccc1Nc1ncnc2[nH]ccc12 (stereo not drawn) | > 7.00
O=C(NCCc1ccccc1)c1sccc1Nc1ncnc2[nH]ccc12 | > 7.00
O=C(NCCc1cccc(F)c1)c1sccc1Nc1ncnc2[nH]ccc12 | > 7.00
